Assay: qHTS assay to identify small molecule antagonists of the estrogen receptor alpha (ER-alpha) signaling pathway using the BG1 cell line - cell viability counter screen (AID 743081);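 also: compound given together with 17beta-estradiol as the ER stimulus; nearly all actives have a fitted effect of over 45% in size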
Conditions: BG1Luc4E2 viability, CellTiter-Fluor, 22 h; series mostly up to 70.3 µM
Records with an inconclusive call do not appear. Active and inactive are the calls of the source. Calls follow the shape of the dose curve; as a rule, active = well fitted cell-killing curve with a large enough effect in the repeat runs; inconclusive = weak or mixed curves, or effect the other way; inactive = flat fitted curve, though single readings scatter.
Select the correct class. Options are TRUE = active, FALSE = inactive and nothing else.

Observe how each entry below is paired with its result.
>  <MOLECULE>
CC1=C(Br)C(=O)C(Br)=C/C1=C(/c1ccccc1S(=O)(=O)O)c1cc(Br)c(O)c(Br)c1C

>  <CATEGORY>
TRUE

$$$$
>  <MOLECULE>
Cc1cc(C)c(N)cc1C

>  <CATEGORY>
FALSE

$$$$
>  <MOLECULE>
CC[C@]1(O)C[C@H]2CN(CCc3c([nH]c4ccccc34)[C@@](C(=O)OC)(c3cc4c(cc3OC)N(C=O)[C@H]3[C@@](O)(C(=O)OC)[C@H](OC(C)=O)[C@]5(CC)C=CCN6CC[C@]43[C@@H]65)C2)C1

>  <CATEGORY>
FALSE

$$$$
>  <MOLECULE>
CC(=O)N/N=C/c1ccc([N+](=O)[O-])o1

>  <CATEGORY>
FALSE

$$$$
>  <MOLECULE>
CC1CC(OC(=O)C(O)c2ccccc2)CC(C)(C)N1C (stereo not drawn)

>  <CATEGORY>
FALSE

$$$$
>  <MOLECULE>
NNC(=O)CP(=O)(c1ccccc1)c1ccccc1

>  <CATEGORY>
FALSE

$$$$
>  <MOLECULE>
CC(C)C[C@H](NC(=O)[C@H](CCc1ccccc1)NC(=O)CN1CCOCC1)C(=O)N[C@@H](Cc1ccccc1)C(=O)N[C@@H](CC(C)C)C(=O)[C@@]1(C)CO1

>  <CATEGORY>
FALSE

$$$$
>  <MOLECULE>
N#CCCN(CCO)CCO

>  <CATEGORY>
FALSE

$$$$

Dear colleague, could you share the recorded outcome for `CCOC(=O)c1ccc(I)cc1` when you have a moment?
FALSE

Dear colleague, could you share the recorded outcome for C=C(C)CCCC(C)CCO (stereo not drawn) when you have a moment?
FALSE

Dear colleague, could you share the recorded outcome for `C=C1c2cccc(O)c2C(O)=C2C(=O)[C@]3(O)C(O)=C(C(N)=O)C(=O)[C@@H](N(C)C)[C@@H]3[C@@H](O)[C@H]12` when you have a moment?
FALSE

Dear colleague, could you share the recorded outcome for C=CC(C)(CCC=C(C)C)OC(=O)CC(C)C (stereo not drawn) when you have a moment?
FALSE

Dear colleague, could you share the recorded outcome for `CC[N+](CC)(CCNC(=O)C(=O)NCC[N+](CC)(CC)Cc1ccccc1Cl)Cc1ccccc1Cl` when you have a moment?
FALSE

---

Assay: qHTS assay to identify small molecule agonists of the androgen receptor (AR) signaling pathway in the presence of an antagonist - cell viability counter screen (AID 1259379); also: nearly all actives have a fitted effect of over 25% in size
Conditions: MDA-kb2 viability, CellTiter-Fluor, 16 h; series mostly up to 92.4 µM
Records with an inconclusive call do not appear. The source made the active and inactive calls. Calls come from the whole dose curve; as a rule, active = well fitted cell-killing curve with a large enough effect in the repeat runs; inconclusive = weak or mixed curves, or effect the other way; inactive = flat fitted curve, though single readings scatter.
Select the correct class. Options are true for active, false for inactive and nothing else.

Observe how each entry below is paired with its result.
>  <MOLECULE>
O=C(Cn1ccnc1[N+](=O)[O-])NCCO

>  <CATEGORY>
false

$$$$
>  <MOLECULE>
CCCCCC[C@@H](O)C/C=C\CCCCCCCC(=O)O

>  <CATEGORY>
false

$$$$
>  <MOLECULE>
C=C1c2cccc(O)c2C(O)=C2C(=O)[C@]3(O)C(O)=C(C(N)=O)C(=O)[C@@H](N(C)C)[C@@H]3[C@@H](O)[C@H]12

>  <CATEGORY>
false

$$$$
>  <MOLECULE>
O=C1Cc2cc(Cl)ccc2N1

>  <CATEGORY>
false

$$$$
>  <MOLECULE>
O=c1[nH]c2ccc(Cl)cc2o1

>  <CATEGORY>
false

$$$$
>  <MOLECULE>
CN(C)CCN1C(=O)c2ccccc2N(C)c2ccccc21

>  <CATEGORY>
false

$$$$
>  <MOLECULE>
CCOc1ccccc1O[C@H](c1ccccc1)[C@H]1CNCCO1

>  <CATEGORY>
false

$$$$
>  <MOLECULE>
C[C@@H](O)[C@H]1C(=O)N2C(C(=O)O)=C([C@H]3CCCO3)S[C@H]12

>  <CATEGORY>
false

$$$$
>  <MOLECULE>
CCOC(=O)c1ccc(C#Cc2ccc3c(c2)C(C)(C)CCS3)nc1

>  <CATEGORY>
false

$$$$
>  <MOLECULE>
C=C/C(C)=C/C/C=C(\C)CCC=C(C)C

>  <CATEGORY>
false

$$$$

Dear colleague, could you share the recorded outcome for `C=C(C)C(=O)OCCCCCCCCCCCCC` when you have a moment?
false

Dear colleague, could you share the recorded outcome for `NC(=O)c1ccncc1` when you have a moment?
false

Dear colleague, could you share the recorded outcome for CC1(CN2CCC(n3c(=O)[nH]c4ccccc43)CC2)OCc2ccccc2-n2cccc21 (stereo unspecified) when you have a moment?
true

Dear colleague, could you share the recorded outcome for `CCCCCCCCCI` when you have a moment?
false

Dear colleague, could you share the recorded outcome for `Cc1[nH]cnc1CN1CCc2c(c3ccccc3n2C)C1=O` when you have a moment?
false

Dear colleague, could you share the recorded outcome for `CCCCCCCC/C=C\CCCCCCCCO` when you have a moment?
false
